- study.system: Dihydrofolate reductase (Mycobacterium avium, UniProt O30463)
- Sequence (O30463 whole entry): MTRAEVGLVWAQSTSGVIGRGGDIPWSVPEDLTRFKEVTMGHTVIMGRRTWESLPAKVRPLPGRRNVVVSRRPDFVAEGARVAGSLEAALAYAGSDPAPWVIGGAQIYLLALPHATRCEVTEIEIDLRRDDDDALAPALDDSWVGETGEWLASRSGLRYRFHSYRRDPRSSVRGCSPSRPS
IC50 less than 600 nM is 1.0; IC50 greater than or equal to 600 nM is 0.0.

INSERT INTO measurements (molecule, class_assignment) VALUES
  ('COc1ccccc1Sc1[nH]c2nc(N)nc(N)c2c1C', 1.0),
  ('Cc1c(Sc2cccc(Cl)c2)[nH]c2nc(N)nc(N)c12', 0.0),
  ('Cc1c(Sc2cccc3ccccc23)[nH]c2nc(N)nc(N)c12', 0.0),
  ('Cc1c(Sc2ccc(Cl)cc2)[nH]c2nc(N)nc(N)c12', 0.0),
  ('COc1cc(CC2CN=C(N)N=C2N)cc(OC)c1OC (stereo not drawn)', 1.0),
  ('Cc1c(Sc2ccc(Cl)cc2Cl)[nH]c2nc(N)nc(N)c12', 0.0),
  ('COc1cccc(Sc2[nH]c3nc(N)nc(N)c3c2C)c1', 0.0);

====

- study.system: Dihydrofolate reductase (Rattus norvegicus, UniProt Q920D2)
- Sequence (Q920D2 whole entry): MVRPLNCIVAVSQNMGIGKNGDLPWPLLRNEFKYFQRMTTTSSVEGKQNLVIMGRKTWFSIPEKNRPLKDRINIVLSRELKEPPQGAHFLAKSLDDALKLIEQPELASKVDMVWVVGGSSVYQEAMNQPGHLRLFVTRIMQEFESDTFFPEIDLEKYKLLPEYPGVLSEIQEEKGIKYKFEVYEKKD
observable: IC50 (µM)

INSERT INTO results (smiles_record, study_system, quantity_unit, reported_result) VALUES
  ('COc1ccc(Sc2[nH]c3nc(N)nc(N)c3c2C)cc1', 'Dihydrofolate reductase (Rattus norvegicus, UniProt Q920D2)', 'µM', 31.3),
  ('Cc1c(Sc2cccc(Cl)c2)[nH]c2nc(N)nc(N)c12', 'Dihydrofolate reductase (Rattus norvegicus, UniProt Q920D2)', 'µM', 47.7),
  ('COc1ccccc1Sc1[nH]c2nc(N)nc(N)c2c1C', 'Dihydrofolate reductase (Rattus norvegicus, UniProt Q920D2)', 'µM', 2.32),
  ('COc1cccc(Sc2[nH]c3nc(N)nc(N)c3c2C)c1', 'Dihydrofolate reductase (Rattus norvegicus, UniProt Q920D2)', 'µM', 2.06),
  ('Cc1c(Sc2ccc(Cl)cc2Cl)[nH]c2nc(N)nc(N)c12', 'Dihydrofolate reductase (Rattus norvegicus, UniProt Q920D2)', 'µM', 110),
  ('COc1ccc(OC)c(Sc2[nH]c3nc(N)nc(N)c3c2C)c1', 'Dihydrofolate reductase (Rattus norvegicus, UniProt Q920D2)', 'µM', 7.8),
  ('Cc1c(Sc2ccc(Cl)cc2)[nH]c2nc(N)nc(N)c12', 'Dihydrofolate reductase (Rattus norvegicus, UniProt Q920D2)', 'µM', 19);

====

Target chain: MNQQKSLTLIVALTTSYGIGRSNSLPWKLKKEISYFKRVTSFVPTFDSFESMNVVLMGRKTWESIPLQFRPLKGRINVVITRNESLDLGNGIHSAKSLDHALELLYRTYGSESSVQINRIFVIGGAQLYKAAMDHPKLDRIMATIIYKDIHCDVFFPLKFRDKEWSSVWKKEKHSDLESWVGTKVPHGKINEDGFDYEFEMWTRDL
pIC50: −log10 of the molar value.
observable: pIC50

INSERT INTO assay_data (smiles_record, qualifying_sign, reported_result) VALUES
  ('COc1ccccc1Sc1[nH]c2nc(N)nc(N)c2c1C', '=', 4.66),
  ('COc1cccc(Sc2[nH]c3nc(N)nc(N)c3c2C)c1', '=', 4.22),
  ('Cc1c(Sc2ccc(Cl)cc2)[nH]c2nc(N)nc(N)c12', '=', 4.78),
  ('Cc1c(Sc2ccc(Cl)cc2Cl)[nH]c2nc(N)nc(N)c12', '<', 4.92),
  ('COc1ccc(Sc2[nH]c3nc(N)nc(N)c3c2C)cc1', '=', 3.95);
